The reported numbers originate from ChEMBL document CHEMBL4052764.

test-details: AUC in rat at 500 mg/kg, po administered as single dose by LC/MS/MS analysis
Format: ADME, organism-based
condition-parameters: in vivo
parameter: AUC (µM·h)

INSERT INTO results (compound_string, val) VALUES
  ('COc1ccc2c(c1)C(=O)N(C[C@@]1(c3cc4ncccc4o3)NC(=O)NC1=O)C2', 240);

###

test-details: Oral bioavailability in dog at 10 mg/kg by LC/MS/MS analysis
Format: ADME, organism-based, Canis lupus familiaris
condition-parameters: in vivo
parameter: bioavailability (%)

INSERT INTO results (compound_string, val) VALUES
  ('COc1ccc2c(c1)C(=O)N(C[C@@]1(c3cc4ncccc4o3)NC(=O)NC1=O)C2.[Na+]', 82);

###

test-details: AUC in rat at 100 mg/kg, po administered as single dose by LC/MS/MS analysis
Format: ADME, organism-based
condition-parameters: in vivo
parameter: AUC (µM·h)

INSERT INTO measurements (compound_string, measure_unit, val) VALUES
  ('COc1ccc2c(c1)C(=O)N(C[C@@]1(c3cc4ncccc4o3)NC(=O)NC1=O)C2', 'µM·h', 120);

###

System: Rattus norvegicus
test-details: AUC in rat assessed as (S)-5-(furo[3,2-b]pyridin-2-yl)-5-((6-methoxy-1-oxoisoindolin-2-yl)methyl)imidazolidine-2,4-dione level at 10 mg/kg, po by HPLC/MS analysis
Assay type: ADME, organism-based
condition-parameters: in vivo
Parameter threshold = 4 µM·h. Response is YES when AUC meets or exceeds it, else NO.

INSERT INTO measurements (compound_string, assigned_category) VALUES
  ('COc1ccc2c(c1)C(=O)N(C[C@@]1(c3cc4ncccc4o3)NC(=O)N(COC(=O)C(C)(C)C)C1=O)C2', 'YES'),
  ('CCOP(=O)(OCC)OCN1C(=O)N[C@@](CN2Cc3ccc(OC)cc3C2=O)(c2cc3ncccc3o2)C1=O', 'NO'),
  ('COCCOCCOCCN1C(=O)N[C@@](CN2Cc3ccc(OC)cc3C2=O)(c2cc3ncccc3o2)C1=O', 'NO'),
  ('COc1ccc2c(c1)C(=O)N(C[C@@]1(c3cc4ncccc4o3)NC(=O)N(C(C)C)C1=O)C2', 'NO'),
  ('COc1ccc2c(c1F)C(=O)N(C[C@@]1(c3cc4nc(N5CCN(C)CC5)ccc4o3)NC(=O)N(COC(=O)C(C)(C)C)C1=O)C2', 'YES'),
  ('CCN1C(=O)N[C@@](CN2Cc3ccc(OC)cc3C2=O)(c2cc3ncccc3o2)C1=O', 'NO'),
  ('COc1ccc2c(c1)C(=O)N(C[C@]1(c3cc4ncccc4o3)C(=O)N(COC(=O)C(C)(C)C)C(=O)N1COC(=O)C(C)(C)C)C2', 'NO'),
  ('COc1ccc2c(c1)C(=O)N(C[C@@]1(c3cc4ncccc4o3)NC(=O)N(COC(=O)c3ccccc3OC(C)=O)C1=O)C2', 'YES');

###

Let's look at some compounds and their measured IC50.
system-name: Disintegrin and metalloproteinase domain-containing protein 17 (Homo sapiens)
Sequence (P78536 whole entry, the tested form may be a part): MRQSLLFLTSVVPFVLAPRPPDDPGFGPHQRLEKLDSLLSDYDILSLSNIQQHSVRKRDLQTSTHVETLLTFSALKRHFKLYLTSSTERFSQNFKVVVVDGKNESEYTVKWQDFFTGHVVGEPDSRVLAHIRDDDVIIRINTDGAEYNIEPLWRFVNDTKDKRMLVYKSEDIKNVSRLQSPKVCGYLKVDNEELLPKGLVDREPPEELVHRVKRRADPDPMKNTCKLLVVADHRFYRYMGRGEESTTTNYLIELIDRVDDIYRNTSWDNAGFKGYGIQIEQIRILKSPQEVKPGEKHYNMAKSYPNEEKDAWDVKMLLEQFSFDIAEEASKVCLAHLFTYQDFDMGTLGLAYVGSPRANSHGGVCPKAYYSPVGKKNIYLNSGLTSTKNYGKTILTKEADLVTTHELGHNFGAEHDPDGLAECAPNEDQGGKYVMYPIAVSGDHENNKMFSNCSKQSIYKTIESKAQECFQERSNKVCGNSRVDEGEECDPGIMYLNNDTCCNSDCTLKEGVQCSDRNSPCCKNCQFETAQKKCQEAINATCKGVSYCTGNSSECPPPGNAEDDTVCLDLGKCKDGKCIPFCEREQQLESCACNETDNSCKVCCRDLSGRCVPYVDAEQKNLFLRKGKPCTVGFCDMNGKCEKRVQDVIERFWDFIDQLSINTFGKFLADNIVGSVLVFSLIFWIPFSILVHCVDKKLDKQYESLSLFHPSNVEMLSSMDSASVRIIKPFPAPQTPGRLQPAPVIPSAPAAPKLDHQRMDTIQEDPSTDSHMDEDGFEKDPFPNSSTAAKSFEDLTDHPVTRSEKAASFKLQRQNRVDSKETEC
test-details: Inhibition of TACE in human whole blood assessed as inhibition of LPS-stimulated TNFalpha production pretreated for 1 hr followed by LPS stimulation for 3.5 hrs by ELISA
parameter: IC50 (nM)

INSERT INTO measurements (compound_string, val) VALUES
  ('COc1ccc2c(c1)C(=O)N(C[C@@]1(c3cc4nc(N5CCNCC5)ccc4o3)NC(=O)N(COC(=O)C(C)(C)C)C1=O)C2', 156),
  ('COc1ccc2c(c1)C(=O)N(C[C@@]1(c3cc4ncccc4o3)NC(=O)N(COC(=O)C(C)(C)C)C1=O)C2', 281),
  ('COc1ccc2c(c1)C(=O)N(C[C@@]1(c3cc4nc(N5CCCNC5=O)ccc4o3)NC(=O)N(COC(=O)C(C)(C)C)C1=O)C2', 282),
  ('COc1ccc2c(c1F)C(=O)N(C[C@@]1(c3cc4nc(-c5cn[nH]c5)ccc4o3)NC(=O)N(COC(=O)C(C)(C)C)C1=O)C2', 141),
  ('CCN1CCN(c2ccc3oc([C@]4(CN5Cc6ccc(OC)cc6C5=O)NC(=O)N(COC(=O)C(C)(C)C)C4=O)cc3n2)CC1', 176),
  ('COc1ccc2c(c1F)C(=O)N(C[C@@]1(c3cc4nc(N5CCNC(=O)C5)ccc4o3)NC(=O)N(COC(=O)C(C)(C)C)C1=O)C2', 104);
